Test system: Hepatocyte spheroids
experiment_description: Cell viability is assessed by cellular ATP assay using CellTiter-Glo Luminescent kit. Viability is expressed as average RLU from biological replicates and normalized to negative control.Toxicity is defined as those with normalized ATP significantly less than 80 percent of the negative control.
Format: functional, Homo sapiens
Parameters: unit not given here
condition_description: Concentration range 5nM-5uM
metric_name: Proliferation
Give bare numbers.

CCCc1cc(C)[nH]c(=O)c1CNC(=O)c1cc(-c2ccnc(N3CCN(C)CC3)c2)cc2c1cnn2C(C)C = 0.009822

Would you be so kind as to report Proliferation for each listed record?
1. CCC(=O)N1CCOc2c(cc(-c3ccc(OC)c(OC)c3)cc2OCC2CCCN(C)C2)C1 (stereo unspecified)
2. COc1cc2c(NC3CCN(C(C)C)CC3)nc(N3CCC(F)(F)CC3)nc2cc1OCCCN1CCCC1
3. COc1cc2c(cc1NS(=O)(=O)c1ccc(Br)cc1C)n(C)c(=O)n2C
4. Cn1cc(CCn2cnc(-c3cnn(C)c3)c2-c2ccc(C#N)cc2)cn1
5. COc1cc2c(NC3CCN(C(C)C)CC3)nc(C3CCCCC3)nc2cc1OCCCN1CCCC1

Result:
0.8195
0.008491
0.003884
0.05329
0.05128
